experiment: NCI Yeast Anticancer Drug Screen. Data for the rad50EPP+ strain (AID 151);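 note: 0% = growth of vehicle-treated control cultures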; conditions: S. cerevisiae rad50 mutant strain, at 33.0 µM, stronger effect = higher value
This is part of a sample that, as a whole, favours compounds with a hit. Of some 79,000 tested, about 15% had one in any assay.
Assay Endpoint: growth inhibition (%)
Please reply with the bare figure in % and do not write the unit itself.

// below: answered compounds
Compound: CC(C)(CCCCC(C)(C)[N+](C)(C)C)[N+](C)(C)C
Assay Endpoint: growth inhibition
Units Label: %
Reported Result: -1

Compound: O=C(O)C1CC(c2ccccc2)=NN1c1ccccc1 (configuration not stated)
Assay Endpoint: growth inhibition
Units Label: %
Reported Result: -3

Compound: Nc1n[n+]([O-])c2ccc(Cl)cc2[n+]1[O-]
Assay Endpoint: growth inhibition
Units Label: %
Reported Result: 91

Compound: Cc1cccc(/C=N/NC(=S)N2CCCC2)n1
Assay Endpoint: growth inhibition
Units Label: %
Reported Result: -27

Compound: CC(C)c1ccc(NC(=S)NC(=O)c2ccccc2)cc1
Assay Endpoint: growth inhibition
Units Label: %
Reported Result: 53

Query string: Give its growth inhibition value. Item: COc1cc(/C=C2\CCC/C(=C\c3ccc(O)c(OC)c3)C2=O)ccc1O
Result string: 22

Query string: Query: growth inhibition; subject: CCCCN(CCCC)CCC(O)c1cc2c(Cl)cc(Cl)cc2c2cc(C(F)(F)F)ccc12 (configuration not stated)
Result string: 98

Query string: What growth inhibition value was documented for this compound, O=C(C[n+]1ccc2ccccc2c1)c1ccc2ccccc2c1 ?
Result string: -20

Query string: Give its growth inhibition value. Item: CN(CCN(C)Cc1ccccc1)Cc1ccccc1
Result string: -22

Query string: Which growth inhibition is reported for this compound? COC(=O)C1=C(C(=O)OC)C(C(=O)OC)C(C(=O)OC)C(C(=O)OC)(C(=O)OC)C(C(=O)OC)=C1C(=O)OC (configuration not stated)
Result string: 1

Query string: Name the recorded growth inhibition for CCN(CC)Cc1cc(Nc2c3ccccc3nc3c2[nH]c2ccccc23)cc(CN(CC)CC)c1O .
Result string: 2

Query string: So what does the record say about growth inhibition for CN(C)c1ccc(C2CC(C)(O)Oc3cc4c(cc32)OCO4)cc1 (configuration not stated) ?
Result string: 36

Query string: What value of measured growth inhibition is listed for CNC(=O)OCc1c(COC(=O)NC)c2n(c1C)-c1ccc(OC)cc1CCC2 ?
Result string: 6

Query string: Would you kindly share the measured growth inhibition for NC1=NNC2(C(N)=N1)c1ccccc1-c1ccccc12 ?
Result string: 44

Query string: Please report the recorded growth inhibition for CC(=O)Nc1ccc2c(c1)Cc1cc(N=C3C=CC(=O)O3)ccc1-2 .
Result string: 99

Query string: Record request: growth inhibition value, item Nc1nc2ccc(NCc3ccc(C(=O)NC(CCC(=O)O)C(=O)O)cc3)cc2c(=O)[nH]1 (configuration not stated)
Result string: -18

Query string: Can you share its growth inhibition? I mean this compound: COc1c(O)c(C=O)c(Br)c(C=O)c1O
Result string: 95

Query string: Given O=[N+]([O-])/C=C/c1cc(Cl)c(/C=C/[N+](=O)[O-])cc1Cl , state its recorded growth inhibition.
Result string: 66

Query string: Tell me the measured growth inhibition of Cc1c(-c2ccccn2)ccc2ccccc12 , please.
Result string: 43

Query string: Which growth inhibition value is on record for Cc1ccc2nc(-c3cccc([N+](=O)[O-])c3)oc(=O)c2c1 ?
Result string: 15

Query string: Query: growth inhibition; subject: CN(C)CCCCN1c2ccccc2Sc2ccc(N=[N+]=[N-])cc21
Result string: 23

Query string: Would you kindly share the measured growth inhibition for CCCCC(CC)C(=O)[O][Sn]([CH2]CCC)([CH2]CCC)[O]C(=O)C(CC)CCCC (configuration not stated) ?
Result string: 12
